Origin of measurements: the kinase profiling compilation of Christmann-Franck et al. (2016)

I'd appreciate it if you could supply residual activity values for the items below.
tgt: CAMK2B (human) (UniProt Q13554)
Sequence (Q13554 whole entry, looked up): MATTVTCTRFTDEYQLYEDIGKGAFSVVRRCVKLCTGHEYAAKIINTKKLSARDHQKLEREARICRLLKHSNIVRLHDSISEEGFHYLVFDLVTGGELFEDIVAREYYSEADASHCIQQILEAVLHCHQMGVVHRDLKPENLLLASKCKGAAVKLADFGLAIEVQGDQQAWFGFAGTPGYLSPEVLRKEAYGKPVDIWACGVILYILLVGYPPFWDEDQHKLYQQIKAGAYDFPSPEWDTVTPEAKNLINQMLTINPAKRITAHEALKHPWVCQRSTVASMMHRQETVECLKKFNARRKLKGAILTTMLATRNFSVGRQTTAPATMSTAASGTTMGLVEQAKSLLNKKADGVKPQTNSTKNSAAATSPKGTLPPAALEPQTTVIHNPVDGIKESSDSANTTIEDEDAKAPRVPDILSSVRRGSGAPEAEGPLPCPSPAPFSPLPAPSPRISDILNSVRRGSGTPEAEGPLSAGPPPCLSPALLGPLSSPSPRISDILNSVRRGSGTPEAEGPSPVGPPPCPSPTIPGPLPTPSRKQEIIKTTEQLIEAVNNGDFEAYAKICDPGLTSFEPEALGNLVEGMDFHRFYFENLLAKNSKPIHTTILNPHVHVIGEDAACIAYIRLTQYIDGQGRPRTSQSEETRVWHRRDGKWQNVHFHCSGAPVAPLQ
procedureDetails: radiometric filter-binding kinase assay, Kinase HotSpot
studyConditions: compound 0.5 µM; ATP 10 µM
Kindly provide the numeric value in % only, without the unit symbol.

Task: Lab note: need residual activity with CAMK2B (human) (UniProt Q13554) for entry O=C1C(Cl)=C(N2C(=O)CCC2=O)C(=O)c2ccccc21 , please look it up.
Result: 106

Task: Moving on to the next compound: Fc1ccc(-c2nc3n(c2-c2ccncc2)CCS3)cc1
Result: 90

Task: Moving on to the next compound: Cc1cccc(-c2nc(C(C)(C)C)[nH]c2-c2ccc3c(c2)OCO3)n1
Result: 96.2

Task: Moving on to the next compound: Cc1nc(-c2ccccc2)c(-c2ccncc2)o1
Result: 95.9

Task: Moving on to the next compound: CO[C@@H]1[C@H](N(C)C(=O)c2ccccc2)C[C@H]2O[C@]1(C)n1c3ccccc3c3c4c(c5c6ccccc6n2c5c31)C(=O)NC4
Result: 57.4

Task: Moving on to the next compound: COc1ccc2c(c1)c(C1=C(c3c[nH]c4ccccc34)C(=O)NC1=O)cn2CCCN(C)C
Result: 89.9

Task: Moving on to the next compound: COc1ccc(S(=O)(=O)N(CCO)c2ccccc2CN(C)C/C=C/c2ccc(Cl)cc2)cc1
Result: 100

Task: Moving on to the next compound: c1ccc2c(-c3ccncc3)c[nH]c2c1
Result: 90.5

Task: Moving on to the next compound: CCCCc1c(-c2ccc(OC)cc2)[nH]c2nccnc12
Result: 97.6

Task: Moving on to the next compound: CS(=O)(=O)CCNCc1ccc(-c2ccc3ncnc(Nc4ccc(OCc5cccc(F)c5)c(Cl)c4)c3c2)o1
Result: 93.8

----------
tgt: ADRBK1 (human) (UniProt P25098)
Sequence (P25098 whole entry, looked up): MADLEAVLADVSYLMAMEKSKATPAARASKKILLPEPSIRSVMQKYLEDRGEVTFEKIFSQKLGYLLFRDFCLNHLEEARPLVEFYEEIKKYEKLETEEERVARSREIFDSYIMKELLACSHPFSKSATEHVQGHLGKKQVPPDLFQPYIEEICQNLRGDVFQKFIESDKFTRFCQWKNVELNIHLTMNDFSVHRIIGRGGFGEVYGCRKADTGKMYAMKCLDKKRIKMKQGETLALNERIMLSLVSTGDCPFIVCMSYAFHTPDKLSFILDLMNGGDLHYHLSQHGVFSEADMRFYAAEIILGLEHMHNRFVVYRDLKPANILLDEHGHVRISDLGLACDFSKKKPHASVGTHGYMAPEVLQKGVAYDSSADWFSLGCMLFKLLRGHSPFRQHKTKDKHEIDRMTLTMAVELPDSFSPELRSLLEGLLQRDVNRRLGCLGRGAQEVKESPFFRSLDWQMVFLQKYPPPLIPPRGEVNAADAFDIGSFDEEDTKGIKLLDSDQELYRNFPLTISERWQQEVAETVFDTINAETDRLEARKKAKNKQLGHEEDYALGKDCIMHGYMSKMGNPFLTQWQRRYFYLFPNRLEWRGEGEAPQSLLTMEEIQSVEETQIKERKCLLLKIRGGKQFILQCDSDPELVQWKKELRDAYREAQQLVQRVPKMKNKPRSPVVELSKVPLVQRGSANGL
procedureDetails: radiometric filter-binding kinase assay, Kinase HotSpot
studyConditions: compound 0.5 µM; ATP 10 µM
I'd appreciate it if you could supply residual activity values for the items below.

Task: # residual activity lookup, item O=C1c2ccccc2-c2nc3nnnn3nc21
Result: 106%

Task: Moving on to the next compound: O=C1Nc2ccc(Br)cc2/C1=C\c1cc2c([nH]1)CCCC2
Result: 105%

Task: Moving on to the next compound: COc1ccc(Cl)cc1NC(=O)Nc1cc(C)nc2ccccc12
Result: 100%

Task: Moving on to the next compound: N#C/C(=C\c1ccc(O)c(O)c1)C(=O)NCc1ccccc1
Result: 96.6%

----------
I'd appreciate it if you could supply residual activity values for the items below.
tgt: CSNK1G2 (human)
procedureDetails: radiometric filter-binding kinase assay, Kinase HotSpot
studyConditions: compound 0.5 µM; ATP 10 µM
Kindly provide the numeric value in % only, without the unit symbol.

Task: # residual activity lookup, item COc1cc2ncnc(Nc3ccc(OCc4ccccc4)cc3)c2cc1OC
Result: 98.4

Task: Moving on to the next compound: CC(C)(C)c1cc(C=C(C#N)C#N)cc(Br)c1O
Result: 100

Task: Moving on to the next compound: O=C1c2ccccc2-c2nc3nnnn3nc21
Result: 82.2

Task: Moving on to the next compound: c1ccc2c(-c3ccncc3)c[nH]c2c1
Result: 95

Task: Moving on to the next compound: COc1ccc2c(c1)c(C1=C(c3c[nH]c4ccccc34)C(=O)NC1=O)cn2CCCN(C)C
Result: 82.2

Task: Moving on to the next compound: COc1ccc(C(=O)Nc2sc3c(c2C(N)=O)CCCC3)cc1OC
Result: 98.7

Task: Moving on to the next compound: COc1ccc(S(=O)(=O)N(CCO)c2ccccc2CN(C)C/C=C/c2ccc(Cl)cc2)cc1
Result: 103

Task: Moving on to the next compound: COc1cc2ncnc(Nc3ccc(Oc4ccccc4)cc3)c2cc1OC
Result: 99.9

Task: Moving on to the next compound: CN(C)CCCn1cc(C2=C(c3c[nH]c4ccccc34)C(=O)NC2=O)c2ccccc21
Result: 90.3

Task: Moving on to the next compound: COc1cc(Nc2c(C#N)cnc3cc(OCCCN4CCN(C)CC4)c(OC)cc23)c(Cl)cc1Cl
Result: 98.3
